# assay_system: HIV-1 reverse transcriptase, heterodimeric p66/p51 (HIV-1), P03366
# assay_details: RT polymerase inhibition assay, Ki from Dixon plot
Ki under 20 µM gets t, anything at or over 20 µM gets f.

These solved cases illustrate the format of a correct answer.
Input: hey, is Ki for KWLTEWIPLTAEAE (modifications not checked) [P26] lower than 20 µM or not?
Output: t

Input: hey, is Ki for GTKWLTEVWPL (modifications not checked) [P16] lower than 20 µM or not?
Output: t

Input: hey, is Ki for GTKALTEVIPLTEEAE (modifications not checked) [P1] lower than 20 µM or not?
Output: t

New cases:
Input: hey, is Ki for GTKALTEAIPLTEEAE (modifications not checked) [P9] lower than 20 µM or not?
Output: t

Input: hey, is Ki for GTKAWTEVWPL (modifications not checked) [P17] lower than 20 µM or not?
Output: f

The reported numbers originate from patent US20110294728A1.
